# ASSAY_REMARKS: chemical genetic growth profiling, strain panel (AID 1159580);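 also: tested at 20 µM; growth read once vehicle control cultures reached saturation at 30 °C; 1 = growth at the plate median or of vehicle wells; lower values mean less growth of the strain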
# REPORTED_CONDITIONS: S. cerevisiae deletion strains, growth OD, locus YMR231W, strain pep5
Hit rate of the full screen: of about 5,500 compounds, about 2,000 (36%) were called active. Roughly 18% stayed inconclusive and do not appear here. Rule as the data show it: active = normalized growth mostly below about 0.91 (no sharp cut-off); inconclusive = no clear call, values can overlap the other calls; inactive = mostly above about 0.92. Some of the results follow.
Bench note: report the call from YES for active, NO for inactive

Hi, sorry to bother you, what did the test record for CC(C)[C@@H]1CC[C@@H](C)C[C@H]1O ?
NO

Answer briefly: the call reported for Cc1ccc(Cl)c(Nc2ccccc2C(=O)O)c1Cl in this assay.
YES

Could you check what this test reported for Cc1c(Cl)cccc1Nc1ccccc1C(=O)O ?
YES

So what was the verdict on Nc1ccc(N=Nc2ccccc2)c(N)n1 in this test?
NO

Answer briefly: the call reported for COC(=O)C[C@H]1C(C)(C)C(=O)[C@@H]2CC3=C(CC[C@]4(C)C3=CC(=O)O[C@H]4c3ccoc3)[C@@]1(C)C2=O in this assay.
NO

Dear colleague, could you share the recorded outcome for O=C1C=C2C=C[C@@H]3C[C@@]2(O1)[C@H]1CCCCN31 when you have a moment?
NO

Identify the outcome logged in this assay for the compound shown: CC(C)C(=O)Nc1ccc([N+](=O)[O-])c(C(F)(F)F)c1
NO

Query: recorded result category for CCN(CC)C(=O)c1cccc(C)c1 in this test
NO

Hi team, can someone confirm the assay call for CO/N=C(\C(=O)NC1C(=O)N2C(C(=O)OC(C)OC(C)=O)=C(COC(N)=O)CSC12)c1ccco1 (stereo not given) ?
NO

Give the logged outcome of this assay for the following compound: Cc1c(S(=O)(=O)O)oc2c1C(=O)C(=O)c1c-2ccc2c1CCCC2(C)C
NO

For CC(=O)N[C@@H](CS)C(=O)O , which call appears in the assay record?
NO

Hello, I am checking results. What call was entered for CCC(C)(C)C(=O)O[C@H]1C[C@@H](C)C=C2C=C[C@H](C)[C@H](CC[C@@H]3C[C@@H](O)CC(=O)O3)[C@H]21 ?
NO

What did this assay record as the result for C[C@H]1COC2=C1C(=O)C(=O)c1c2ccc2c1CCCC2(C)C ?
YES

What outcome does the record of this test show for CO/N=C(\C(=O)N[C@@H]1C(=O)N2C(C(=O)O)=C(CSc3nc(=O)c(O)nn3C)CS[C@H]12)c1csc(N)n1 ?
NO

Kindly provide the recorded test outcome for the following compound: CO/N=C(\C(=O)NC1C(=O)N2C(C(=O)O)=C(COC(N)=O)CSC12)c1ccco1 (stereo not given)
NO

Returns: the outcome recorded for C=CCSCC1Nc2cc(Cl)c(S(N)(=O)=O)cc2S(=O)(=O)N1 (stereo not given) in this assay.
NO

Test call, this compound: CC[C@H](C)C(=O)O[C@H]1C[C@@H](C)C=C2C=C[C@H](C)[C@H](CC[C@@H]3C[C@@H](O)CC(=O)O3)[C@H]21
NO

What did this assay record as the result for CC1(C)NC(=O)N(c2ccc([N+](=O)[O-])c(C(F)(F)F)c2)C1=O ?
NO

Could you kindly confirm the outcome this assay logged for C=C1C(=O)O[C@@H]2C3O[C@]3(C)CC/C=C(\C)CC[C@@H]12 (stereo not given in full) ?
NO

Outcome? CO/N=C(\C(=O)N[C@@H]1C(=O)N2C(C(=O)O)=C(COC(C)=O)CS[C@H]12)c1csc(N)n1
NO

###

# ASSAY_REMARKS: chemical genetic growth profiling, strain panel (AID 1159580)
# REPORTED_CONDITIONS: S. cerevisiae deletion strains, growth OD, locus YOL136C, strain PFK27
Out of some 5,500 compounds screened, about 2,000 (36%) were called active. Not shown: some 18% with an inconclusive outcome. No stated cut-off is given here; in the data, active means normalized growth mostly below about 0.91 (no sharp cut-off); inconclusive means no clear call, values can overlap the other calls; inactive means mostly above about 0.92. Some of the results follow.
Your response should consist of one outcome taken from active, inactive

Please state the recorded outcome for this compound: Cc1ccc(NS(=O)(=O)c2ccc(-c3csc(C)n3)s2)c(C)c1
inactive

Name the outcome recorded for OC(=Cc1nc2ccccc2nc1C=C(O)c1ccc(Cl)cc1)c1ccc(Cl)cc1 in the assay.
inactive

Name the outcome recorded for Cc1onc(-c2c(Cl)cccc2Cl)c1C(=O)NC(C)(C)CC(C)(C)C in the assay.
inactive

Per the assay record, what outcome was assigned to CC(C)(C)c1ccc(C(=O)NNc2c(Cl)cccc2Cl)cc1 ?
inactive

Assay result, entry O=C(Nc1ccc(OC(F)(F)F)cc1)N1CCN(c2nc(-c3ccccc3)ns2)CC1 — outcome?
inactive

Lab log entry: ClC1=C(C=Nc2ccc(Cl)cc2)CSc2ccc(Cl)cc21 — outcome as called in the assay?
inactive

What is the recorded call for this compound in the test? CC(=O)ON=C1c2cc([N+](=O)[O-])ccc2-c2ccc([N+](=O)[O-])cc21
inactive

For this compound, state the assay outcome: CCc1ccn2cc(Nc3ccccc3Cl)nc2c1
inactive

// param item: Cc1ccc(NS(=O)(=O)c2ccc(Cl)cc2)c(N=Cc2cc(Cl)cc(Cl)c2O)c1 ; yields the recorded call
active

Hi, sorry to bother you, what did the test record for Cc1c(C(=O)N(Cc2ccccc2)Cc2cccs2)cnn1-c1ccc(Cl)cc1 ?
inactive

Status in this test for O=C(NNc1ccc(I)cc1)c1cc(Cl)cc(Cl)c1 ?
inactive

Please state the recorded outcome for this compound: Cc1cccc(NC(=S)NNC(=O)CSCc2cccc3ccccc23)c1
inactive

Fill in: this test's call for Cc1nc(-c2ccc(S(=O)(=O)Nc3ccc(Br)cc3Cl)s2)cs1 is ___
inactive

Please indicate how the test categorized O=C(Nc1ccc(Cl)cc1)OCCSc1nc2ccccc2s1 .
inactive

Called result for FC(F)(F)c1cccc(-n2c(CSCc3cccc4ccccc34)n[nH]c2=S)c1
inactive

Answer briefly: the call reported for CC(C)(CCC(C)(C)N1C(=O)c2cccc3cccc(c23)C1=O)N1C(=O)c2cccc3cccc(c23)C1=O in this assay.
active

Per the assay record, what outcome was assigned to O=[N+]([O-])c1ccc(Sc2ssc(=S)c2-c2ccccc2)nc1 ?
active

Hi, do you know how FC(F)(F)c1ccnc(N2CCCN(C(=S)Nc3ccc(Cl)cc3Cl)CC2)n1 came out in this test?
inactive

Recorded test outcome, item CC1(C)OC(=O)C(=Cc2cccn2-c2ccc(C(F)(F)F)cc2)C(=O)O1
inactive

// param item: CC(C)(C)c1ccc(C(=O)Nc2ccc(C(F)(F)F)cc2)s1 ; yields the recorded call
inactive

Would you mind telling me which call this test gave Cc1ccc(NNC(=O)c2c(C)noc2C)cc1Cl ?
inactive

# lookup: test call for N#CC(C#N)=Cc1ccc(-c2ccccc2C(F)(F)F)o1
inactive

###

Hi there, I'd appreciate the recorded normalized growth for every entry that follows.
# ASSAY_REMARKS: chemical genetic growth profiling, strain panel (AID 1159580);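 also: tested at 20 µM; growth read once vehicle control cultures reached saturation at 30 °C; 1 = growth at the plate median or of vehicle wells; lower values mean less growth of the strain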
# REPORTED_CONDITIONS: S. cerevisiae deletion strains, growth OD, locus YGL248W, strain PDE1, active compounds read low
Among all 5,500 compounds or so, about 2,000 (36%) were called active. Not shown: some 18% with an inconclusive outcome. This is one part of the list.

Could you please provide reported normalized growth for CO/N=C(\C(=O)NC1C(=O)N2C(C(=O)O)=C(COC(N)=O)CSC12)c1ccco1 (stereo not drawn) ? Thanks!
0.0434 (active)

Note down normalized growth recorded for CO/N=C(\C(=O)N[C@@H]1C(=O)N2C(C(=O)O)=C(COC(C)=O)CS[C@H]12)c1csc(N)n1
1.02 (inactive)

For the compound CO/N=C(\C(=O)N[C@@H]1C(=O)N2C(C(=O)O)=C(CSc3nc(=O)c(O)nn3C)CS[C@H]12)c1csc(N)n1 , report normalized growth.
1 (inactive)

###

# ASSAY_REMARKS: chemical genetic growth profiling, strain panel (AID 1159580);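 also: tested at 20 µM; growth read once vehicle control cultures reached saturation at 30 °C; 1 = growth at the plate median or of vehicle wells; lower values mean less growth of the strain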
# REPORTED_CONDITIONS: S. cerevisiae deletion strains, growth OD, locus YAL021C, strain ccr4, active compounds read low
About 2,000 (36%) of roughly 5,500 compounds were called active. Another 18% or so got no clear call; they are omitted. The list shows a part of the results.
normalized growth class ranges: low: < 0.9; mid: ≥ 0.9 and < 1; high: ≥ 1

Textbook exercise: identify the category of the molecule given here, CCC(C)(C)C(=O)O[C@H]1C[C@@H](C)C=C2C=C[C@H](C)[C@H](CC[C@@H]3C[C@@H](O)CC(=O)O3)[C@H]21 , according to its measured value.
low

Would you mind sorting Oc1ccc(Cl)cc1Cc1cc(Cl)ccc1O into the appropriate category?
low

Which class is correct for the following molecule? Cn1c(=O)c2[nH]cnc2n(C)c1=O
high

Dear colleague, I would appreciate it if you could identify the bin for Cc1c(Cl)cccc1Nc1ccccc1C(=O)O and reply at your convenience.
low

// bin(item) where item = Cc1cccc(Nc2ccccc2C(=O)O)c1C
mid

###

Consider the following compounds; for each one, report its normalized growth.
# ASSAY_REMARKS: chemical genetic growth profiling, strain panel (AID 1159580);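 also: tested at 20 µM; growth read once vehicle control cultures reached saturation at 30 °C; 1 = growth at the plate median or of vehicle wells; lower values mean less growth of the strain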
# REPORTED_CONDITIONS: S. cerevisiae deletion strains, growth OD, locus YNL307C, strain MCK1, active compounds read low
Hit rate of the full screen: of about 5,500 compounds, about 2,000 (36%) were called active. Not shown: some 18% with an inconclusive outcome. The list shows a part of the results.
No unit in the answer, please; the number alone is enough.

Recall and state the measured normalized growth for C[N+]1(C)C2CC(OC(=O)[C@@H](CO)c3ccccc3)CC1C1OC12 (stereo not given in full) .
1.02

Report normalized growth for OC(Cn1cncn1)(Cn1cncn1)c1ccc(F)cc1F
1.01

Given CC1(C)OC(=O)C=CC2(C)C1CC(O)C1(C)C2CCC2(C)C(c3ccoc3)OC(=O)C3OC321 (stereo not given) , respond with its normalized growth.
1.02

Name the recorded normalized growth of the compound listed here: O=C1[C@H](CCC(O)c2ccc(F)cc2)[C@@H](c2ccc(O)cc2)N1c1ccc(F)cc1 (stereo not given in full)
0.961

Please look at this compound and report its normalized growth: O=C(O)c1cc2cc(Cc3cccnc3)ccc2o1
0.995
